Molecular target: Human TRPC6 (Homo sapiens, UniProt Q9Y210)
Construct: expressed in transfected cells
Sequence (Q9Y210 1-931): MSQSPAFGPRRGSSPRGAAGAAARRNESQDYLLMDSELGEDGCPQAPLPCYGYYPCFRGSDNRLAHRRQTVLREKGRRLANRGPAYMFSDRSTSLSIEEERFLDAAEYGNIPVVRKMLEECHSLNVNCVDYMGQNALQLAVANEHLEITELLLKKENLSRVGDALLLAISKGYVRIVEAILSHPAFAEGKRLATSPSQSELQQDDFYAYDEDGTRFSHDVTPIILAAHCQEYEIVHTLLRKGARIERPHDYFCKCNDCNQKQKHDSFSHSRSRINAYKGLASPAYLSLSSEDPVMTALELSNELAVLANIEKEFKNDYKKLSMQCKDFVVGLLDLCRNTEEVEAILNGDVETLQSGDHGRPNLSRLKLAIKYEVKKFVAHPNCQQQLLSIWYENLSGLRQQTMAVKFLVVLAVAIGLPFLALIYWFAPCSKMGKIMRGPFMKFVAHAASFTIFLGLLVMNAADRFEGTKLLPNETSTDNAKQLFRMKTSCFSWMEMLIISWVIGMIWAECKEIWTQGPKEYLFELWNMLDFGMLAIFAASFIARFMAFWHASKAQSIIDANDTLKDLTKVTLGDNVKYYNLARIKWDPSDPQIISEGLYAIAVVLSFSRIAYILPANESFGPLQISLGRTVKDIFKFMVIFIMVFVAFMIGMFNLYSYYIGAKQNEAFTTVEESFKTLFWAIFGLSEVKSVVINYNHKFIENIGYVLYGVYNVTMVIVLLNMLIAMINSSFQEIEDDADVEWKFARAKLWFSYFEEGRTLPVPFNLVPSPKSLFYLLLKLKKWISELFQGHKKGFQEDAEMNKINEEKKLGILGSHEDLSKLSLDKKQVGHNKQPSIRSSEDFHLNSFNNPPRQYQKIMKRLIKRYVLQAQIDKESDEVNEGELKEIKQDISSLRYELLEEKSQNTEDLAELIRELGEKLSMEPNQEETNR
Test: Evaluation of TRPC6 channel inhibitory activity (1), FLIPR Calcium 5 Assay Kit, OAG stimulation (Compound Nos. 1-1293)
Assay type: cell-based
Settings: Human TRPC6 stably-expressing cells, OAG 30 μM, FLIPR Calcium 5 Assay Kit; read-out: Inhibitory activity (pIC50 class) (converted)
# key: entry, value: IC50

Here's what some known entries look like.
State the recorded IC50 for this entry: Cc1nc(-c2ccccc2)cn1Cc1cc(C#N)ccc1-c1ccc(C(O)CN)cc1 (centres unmarked)
< 10 nM

Same question for Cn1nc(-c2cccc(F)c2)cc1Oc1cc(C#N)ccc1-c1ccc(CCN)cc1 please.
< 10 nM

Let's switch to this compound now.
State the recorded IC50 for this entry: N#Cc1ccc(-c2ccc(C(O)CN)cc2)c(Oc2cnnc(N3CCOCC3)c2)c1 (centres unmarked)
> 1000 nM

----------
Molecular target: Human TRPC6 (Homo sapiens)
Construct: expressed in transfected cells
Sequence (Q9Y210 1-931): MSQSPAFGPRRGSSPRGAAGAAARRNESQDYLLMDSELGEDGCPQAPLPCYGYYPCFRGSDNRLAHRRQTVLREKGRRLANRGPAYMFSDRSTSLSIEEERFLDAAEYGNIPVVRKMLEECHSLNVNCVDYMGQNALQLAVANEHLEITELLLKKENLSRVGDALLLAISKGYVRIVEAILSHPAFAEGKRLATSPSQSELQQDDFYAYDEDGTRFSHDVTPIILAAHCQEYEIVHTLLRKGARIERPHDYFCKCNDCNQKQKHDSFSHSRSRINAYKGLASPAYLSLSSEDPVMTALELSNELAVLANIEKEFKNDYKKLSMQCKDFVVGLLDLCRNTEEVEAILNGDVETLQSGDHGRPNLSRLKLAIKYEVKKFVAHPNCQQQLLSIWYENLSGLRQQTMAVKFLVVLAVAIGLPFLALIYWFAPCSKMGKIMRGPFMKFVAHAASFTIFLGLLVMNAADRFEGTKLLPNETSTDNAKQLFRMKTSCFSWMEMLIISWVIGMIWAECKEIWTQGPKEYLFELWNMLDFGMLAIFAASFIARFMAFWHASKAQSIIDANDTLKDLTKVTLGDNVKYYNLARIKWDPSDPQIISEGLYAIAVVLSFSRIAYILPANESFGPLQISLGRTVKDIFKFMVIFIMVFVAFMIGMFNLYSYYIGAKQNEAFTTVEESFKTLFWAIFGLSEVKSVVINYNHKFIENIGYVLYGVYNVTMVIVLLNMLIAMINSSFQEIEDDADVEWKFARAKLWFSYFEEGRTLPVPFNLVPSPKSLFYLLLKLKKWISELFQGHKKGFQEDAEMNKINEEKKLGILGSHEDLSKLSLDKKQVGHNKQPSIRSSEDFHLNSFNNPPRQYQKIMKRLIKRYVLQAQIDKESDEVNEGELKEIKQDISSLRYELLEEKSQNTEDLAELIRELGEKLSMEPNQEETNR
Experiment: Evaluation of TRPC6 channel inhibitory activity (1), FLIPR Calcium 5 Assay Kit, OAG stimulation (Compound Nos. 1-1293)
Format: cell-based
Settings: Human TRPC6 stably-expressing cells, OAG 30 μM, FLIPR Calcium 5 Assay Kit; read-out: Inhibitory activity (pIC50 class) (converted)
Attribute measured: IC50

Here's what some known entries look like.
State the recorded IC50 for this entry: Cn1nc(C(C)(C)C)cc1C(=O)c1cc(C#N)ccc1-c1ncc(CCN)cn1
< 10 nM

Same question for Cc1nc(Oc2cc(C#N)ccc2-n2cc(CN)cn2)cc(N2CCOCC2)n1 please.
10 to 1000 nM

Same question for Cc1ccc(-c2cc(Oc3cc(C#N)ccc3-n3cc(C(O)CN)cn3)nc(C)n2)cc1 (centres unmarked) please.
10 to 1000 nM

Next:
State the recorded IC50 for this entry: Cc1nc(Oc2cc(C#N)ccc2-c2ncc(CCN)cn2)cc(N2C=NCCC2)n1
> 1000 nM

----------
# key: entry, value: IC50
Target: Human TRPC6 (Homo sapiens)
Construct: expressed in transfected cells
Assay: Evaluation of TRPC6 channel inhibitory activity (1), FLIPR Calcium 5 Assay Kit, OAG stimulation (Compound Nos. 1-1293)
Type: cell-based
Conditions: Human TRPC6 stably-expressing cells, OAG 30 μM, FLIPR Calcium 5 Assay Kit; read-out: Inhibitory activity (pIC50 class) (converted)

Here's what some known entries look like.
State the recorded IC50 for this entry: Cn1nc(-c2ccc(F)cc2)cc1Oc1cc(C#N)ccc1-c1ccc(CCN)cn1
< 10 nM

Same question for Cc1cc(C(=O)c2cc(C#N)ccc2-c2ncc(CCN)cn2)cc(N2CCOCC2)n1 please.
< 10 nM

Same question for N#Cc1ccc(-c2ccc(CCN)cn2)c(Cn2cnc(-c3ccccc3F)c2)c1 please.
< 10 nM

Next:
State the recorded IC50 for this entry: CCN(CC)c1cc(Oc2cc(C#N)ccc2-c2ncc([C@H](F)CN)cn2)n(C)n1
< 10 nM

Same question for Cc1nc(Oc2cc(C#N)ccc2-c2ccc(CCN)cc2)cc(N2CCCOCC2)n1 please.
10 to 1000 nM

Same question for Cc1nc(Oc2cc(C#N)ccc2-n2cc3c(n2)CCNC3)cc(N2CCCCC2)n1 please.
10 to 1000 nM

----------
Target: Human TRPC6 (Homo sapiens)
Construct: expressed in transfected cells
Experiment: Evaluation of TRPC6 channel inhibitory activity (1), FLIPR Calcium 5 Assay Kit, OAG stimulation (Compound Nos. 1-1293)
Type: cell-based
Settings: Human TRPC6 stably-expressing cells, OAG 30 μM, FLIPR Calcium 5 Assay Kit; read-out: Inhibitory activity (pIC50 class) (converted)
Attribute measured: IC50

Here's what some known entries look like.
State the recorded IC50 for this entry: Cn1nc(COC2CCCC2)cc1Oc1cc(C#N)ccc1-c1ccc(CCN)cn1
0.01 to 1 µM

Same question for Cn1nc(N2CCCCC2)cc1Oc1cc(C#N)ccc1-c1ncc(CCN)cn1 please.
< 0.01 µM

Same question for N#Cc1ccc(-c2ccc(CCN)cc2)c(Oc2cnnc(-c3ccccc3OC(F)(F)F)c2)c1 please.
0.01 to 1 µM

Let's switch to this molecule now.
State the recorded IC50 for this entry: Cc1cc(Oc2cc(C#N)ccc2-c2ccc(OC3CNC3)cn2)cc(N2CCOCC2)n1
0.01 to 1 µM

----------
# key: entry, value: IC50
Target: Human TRPC6 (Homo sapiens)
Construct: expressed in transfected cells
Sequence (Q9Y210 1-931): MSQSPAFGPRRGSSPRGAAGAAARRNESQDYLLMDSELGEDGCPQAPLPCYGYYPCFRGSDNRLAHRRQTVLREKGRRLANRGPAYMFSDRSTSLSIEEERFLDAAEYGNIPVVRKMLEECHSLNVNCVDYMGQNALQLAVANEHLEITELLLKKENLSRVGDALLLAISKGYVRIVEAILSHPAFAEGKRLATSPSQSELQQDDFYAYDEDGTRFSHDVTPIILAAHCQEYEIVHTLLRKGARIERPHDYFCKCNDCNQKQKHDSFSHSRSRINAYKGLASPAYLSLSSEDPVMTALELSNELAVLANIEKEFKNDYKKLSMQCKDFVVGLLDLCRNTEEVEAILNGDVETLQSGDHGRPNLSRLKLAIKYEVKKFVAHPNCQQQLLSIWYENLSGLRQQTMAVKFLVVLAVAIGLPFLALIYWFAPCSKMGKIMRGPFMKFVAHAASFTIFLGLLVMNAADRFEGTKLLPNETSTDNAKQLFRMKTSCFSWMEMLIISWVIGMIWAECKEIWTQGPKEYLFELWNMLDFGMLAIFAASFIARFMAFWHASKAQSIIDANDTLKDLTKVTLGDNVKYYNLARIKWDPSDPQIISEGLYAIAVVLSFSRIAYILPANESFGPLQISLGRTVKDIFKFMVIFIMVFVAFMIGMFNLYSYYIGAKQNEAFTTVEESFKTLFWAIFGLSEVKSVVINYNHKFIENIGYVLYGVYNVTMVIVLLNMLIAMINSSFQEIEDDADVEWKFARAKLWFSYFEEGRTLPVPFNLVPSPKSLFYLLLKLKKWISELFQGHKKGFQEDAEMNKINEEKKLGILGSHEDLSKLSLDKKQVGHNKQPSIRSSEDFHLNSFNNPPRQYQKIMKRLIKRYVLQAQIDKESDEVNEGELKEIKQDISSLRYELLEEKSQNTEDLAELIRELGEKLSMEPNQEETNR
Test: Evaluation of TRPC6 channel inhibitory activity (1), FLIPR Calcium 5 Assay Kit, OAG stimulation (Compound Nos. 1-1293)
Format: cell-based
Details: Human TRPC6 stably-expressing cells, OAG 30 μM, FLIPR Calcium 5 Assay Kit; read-out: Inhibitory activity (pIC50 class) (converted)

Here's what some known entries look like.
State the recorded IC50 for this entry: Cc1cc(Oc2cc(C#N)ccc2-c2nnc(CN)s2)cc(N2CCOCC2)n1 [compound 593]
> 1000 nM

Same question for Cc1nc(Oc2cc(C#N)ccc2-c2ncc(CCN)cn2)cc(OC2COC2)n1 [compound 886] please.
> 1000 nM

Same question for Cc1nc(Sc2cc(C#N)ccc2-c2ncc(CCN)cn2)cc(N2CCOCC2)n1 [compound 1254] please.
10 to 1000 nM

Next:
State the recorded IC50 for this entry: Cn1nc(C2CCOCC2)cc1Oc1cc(C#N)ccc1-c1ncc(CN)cn1 [compound 441]
< 10 nM

Same question for Cc1nc(Oc2cc(C#N)ccc2-c2ncc(CCN)cn2)cc(N2CCCC2=O)n1 [compound 880] please.
10 to 1000 nM

Same question for Cc1nc(Oc2cc(C#N)ccc2-n2cc(C(O)CN)cn2)cc(-c2ccc(F)cc2)n1 (stereo not drawn) [Compound 140] please.
10 to 1000 nM

Same question for Cn1nc(-c2ccccn2)cc1Oc1cc(C#N)ccc1-c1ncc(CCN)cn1 [Compound 285] please.
< 10 nM

Same question for Cn1nc(N2CCCCC2)cc1C(=O)c1cc(C#N)ccc1-c1ncc(CCN)cn1 [compound 1062] please.
< 10 nM

Same question for Cc1nc(-c2ccccc2)cn1Cc1cc(C#N)ccc1-c1ncc(CCN)cn1 [compound 1137] please.
< 10 nM

Same question for Cc1nc(Oc2cc(C#N)ccc2-c2ncc(CN)cn2)cc(N(C)C(C)C)n1 [compound 792] please.
10 to 1000 nM

Same question for N#Cc1ccc(-c2ncc(CCN)cn2)c(Oc2cnn(CC(F)F)c2)c1 [compound 927] please.
10 to 1000 nM

Same question for Cc1scnc1-c1cc(Oc2cc(C#N)ccc2-c2ncc(CN)cn2)n(C)n1 [compound 963] please.
< 10 nM

Same question for Cc1cc(Oc2cc(C#N)ccc2-n2cc(C(O)CN)cn2)cc(-c2ccccc2)n1 (stereo not drawn) [Compound 226] please.
< 10 nM

Same question for Cn1nc(C2CC2)cc1Oc1cc(C#N)ccc1-c1cccn2c(C[C@H](N)C(=O)O)nnc12 (stereo in doubt) [compound 581] please.
> 1000 nM

Same question for N#Cc1ccc(-c2ccc(CCN)nc2)c(Oc2cnnc(Cl)c2)c1 [Compound 76] please.
> 1000 nM

Same question for Cn1nc(-c2ccccc2)cc1Oc1cc(C#N)ccc1-c1ccc(C(F)(F)CN)cn1 [compound 308] please.
10 to 1000 nM

Same question for N#Cc1ccc(-c2ccc(CN)cc2)c(Nc2cc(-c3ccccc3)ncn2)c1 [Compound 1] please.
10 to 1000 nM

Same question for Cc1nnc(-c2cc(Oc3cc(C#N)ccc3-c3ncc(CN)cn3)n(C)n2)s1 [compound 961] please.
> 1000 nM

Same question for COCCN(C)c1cc(Oc2cc(C#N)ccc2-c2ncc(CCN)cn2)n(C)n1 [compound 760] please.
< 10 nM
